test: Salt screen: HT-XRPD after accelerated aging conditions; assay type: physicochemical; details: Dichloromethane; solid form by HT-XRPD after 40° C., 75% RH for two days; code+number = crystalline salt polymorph, 0 = crystalline counter ion itself
VALUE TYPE: XRPD 2

Examples with answers:
O=S(=O)(O)CCS(=O)(=O)O: Eds1
O=C(O)c1cc(O)ccc1O: Gen2
O=C(O)[C@H](O)[C@@H](O)[C@H](O)[C@H](O)CO: Amorphous
O=S(=O)(O)c1ccccc1: Amorphous
O=C(O)C(O)c1ccccc1 (racemic): Amorphous

For each of the compounds below, state XRPD 2.
1. O=C(O)[C@H](O)[C@@H](O)C(=O)O [(+)-L-Tartaric acid]
2. Cl [Hydrochloric acid]
3. O=S(=O)(O)O
4. O=C1O[C@H]([C@@H](O)CO)C(O)=C1O
5. Cc1ccc(S(=O)(=O)O)cc1
6. CC(=O)O
7. O=P(O)(O)O
8. CS(=O)(=O)O

Amorphous
Amorphous
Amorphous
Amorphous
Amorphous
Amorphous
Pho3
Amorphous

For each of the compounds below, state XRPD 2.
1. O=C(O)C(=O)O
2. O=C(O)CNC(=O)c1ccccc1
3. N[C@@H](CC(=O)O)C(=O)O
4. O=C(O)/C=C\C(=O)O
5. Br [Hydrobromic acid]
6. N[C@@H](CCC(=O)O)C(=O)O
7. O=S(=O)(O)c1ccc2ccccc2c1

1: Oxa3; 2: Amorphous; 3: Amorphous; 4: Amorphous; 5: Amorphous; 6: Amorphous; 7: Amorphous

---

experiment: Salt screen: HT-XRPD after accelerated aging conditions; assay type: physicochemical; details: 1-Butanol; solid form by HT-XRPD after 40° C., 75% RH for two days; code+number = crystalline salt polymorph, 0 = crystalline counter ion itself
VALUE TYPE: XRPD 2

Examples with answers:
Br [Hydrobromic acid]: Amorphous
O=C(O)c1cc(O)ccc1O [Gentisic acid]: Gen2
O=C(O)CC(O)(CC(=O)O)C(=O)O [Citric acid]: Amorphous
O=S(=O)(O)O [Sulfuric acid]: Amorphous
O=C[C@H](O)[C@@H](O)[C@H](O)[C@H](O)C(=O)O [D-Glucuronic acid]: Amorphous
CC(O)C(=O)O (stereo not shown) [Lactic acid]: Amorphous

For each of the compounds below, state XRPD 2.
1. N[C@@H](CCC(=O)O)C(=O)O [Glutamic acid]
2. O=C(O)[C@H](O)[C@@H](O)[C@H](O)[C@H](O)CO [Gluconic acid]
3. O=C(O)/C=C\C(=O)O [Maleic acid]
4. O=C(O)C(O)c1ccccc1 (racemic) [DL-Mandelic acid]
5. Cc1ccc(S(=O)(=O)O)cc1 [p-Toluenesulfonic acid]
6. O=C(O)CCCC(=O)O [Glutaric acid]
7. CCS(=O)(=O)O [Ethanesulfonic acid]

1. Gltm0
2. Amorphous
3. Amorphous
4. Amorphous
5. Amorphous
6. Glut1
7. Amorphous

---

experiment: Salt screen: HT-XRPD after accelerated aging conditions; assay type: physicochemical; settings: Dichloromethane; solid form by HT-XRPD after 40° C., 75% RH for two days; code+number = crystalline salt polymorph, 0 = crystalline counter ion itself
VALUE TYPE: XRPD 2

O=C(O)CCCC(=O)O [Glutaric acid]: Glut1
O=C(O)CC(O)(CC(=O)O)C(=O)O [Citric acid]: Amorphous
CC(O)C(=O)O (stereo not drawn) [Lactic acid]: Amorphous
O=C(O)c1ccccc1O [Salicylic acid]: Amorphous
CCS(=O)(=O)O [Ethanesulfonic acid]: Amorphous

Next:
What value of XRPD 2 has been recorded for this entry: O=C[C@H](O)[C@@H](O)[C@H](O)[C@H](O)C(=O)O [D-Glucuronic acid] Amorphous
